Values compiled from patent US20250326771A1.

System: Jurkat HIV-luciferase clones
method_notes: Jurkat latency reversal assay
Format: cell-based
assay_context: Homo sapiens, 48 h; Jurkat latency reversal assay potency; read-out: Jurkat pEC50 (converted)
List of EC50 values.

mol	study_target	reading
C[C@@H]1CN(CC(=O)N2CC(C)(C)c3[nH]c(=O)c(Cc4ccc(Cl)cc4C#N)cc32)[C@@H](CN2CCO[C@H](COc3cccc(OC[C@@H]4CN(C[C@H]5CN[C@H](C)CN5CC(=O)N5CC(C)(C)c6[nH]c(=O)c(Cc7ccc(Cl)cc7C#N)cc65)CCO4)c3)C2)CN1	Jurkat HIV-luciferase clones	0.49 to 12.6 nM

Please look at the following compound next.
Fill blank: measured EC50 of the compound C[C@@H]1CN(CC(=O)N2CC(C)(C)c3[nH]c(=O)c(Cc4ccc(F)cc4)cc32)[C@@H](CN2CCO[C@H](C(=O)NCC#CC#CCNC(=O)[C@@H]3CN(C[C@H]4CN[C@H](C)CN4CC(=O)N4CC(C)(C)c5[nH]c(=O)c(Cc6ccc(F)cc6)cc54)CCO3)C2)CN1 is ____.
12.6 to 63.1 nM

* * *

study_target: XIAP-BIR3 (Homo sapiens (Human), UniProt P98170)
Sequence (P98170 241-356): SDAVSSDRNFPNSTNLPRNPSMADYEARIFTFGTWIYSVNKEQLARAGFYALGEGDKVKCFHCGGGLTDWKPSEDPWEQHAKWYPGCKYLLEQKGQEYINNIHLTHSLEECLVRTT
method_notes: BIR binding assay (FRET competition), XIAP BIR3
assay_context: fold separation (FS) for XIAP

mol	XIAP BIR3 vs BIR2 separation window
C[C@@H]1CN(CC(=O)N2CC(C)(C)c3[nH]c(=O)c(Cc4ccc(F)cc4)cc32)[C@@H](CN2CCN(CCc3cn(CCC(=O)N4CCN(C[C@H]5CN[C@H](C)CN5CC(=O)N5CC(C)(C)c6[nH]c(=O)c(Cc7ccc(F)cc7)cc65)[C@H](C)C4)nn3)C[C@H]2C)CN1	++++ (FS>10,000)
C[C@@H]1CN(CC(=O)N2CC(C)(C)c3[nH]c(=O)c(Cc4ccc(F)cc4)cc32)[C@@H](CN2CCC[C@@H](NC(=O)CCCCCCC(=O)N[C@@H]3CCCN(C[C@H]4CN[C@H](C)CN4CC(=O)N4CC(C)(C)c5[nH]c(=O)c(Cc6ccc(F)cc6)cc54)C3)C2)CN1	++++ (FS>10,000)
C[C@@H]1CN(CC(=O)N2CC(C)(C)c3[nH]c(=O)c(Cc4ccc(F)cc4)cc32)[C@@H](CN2CCC(CC(=O)N(C)Cc3ccc(CN(C)C(=O)CC4CCN(C[C@H]5CN[C@H](C)CN5CC(=O)N5CC(C)(C)c6[nH]c(=O)c(Cc7ccc(F)cc7)cc65)CC4)cc3)CC2)CN1	++++ (FS>10,000)

* * *

study_target: cIAP1-BIR2 (Homo sapiens (Human), UniProt Q13490)
Sequence (Q13490 173-257): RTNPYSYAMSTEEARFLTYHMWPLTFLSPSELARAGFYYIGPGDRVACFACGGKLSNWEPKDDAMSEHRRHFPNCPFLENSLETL
method_notes: BIR binding assay (FRET competition), cIAP1 BIR2
pIC50: −log10 of the molar value.
property_name: pIC50

Worked examples follow.
mol	pIC50
C[C@@H]1CN(CC(=O)N2CC(C)(C)c3[nH]c(=O)c(Cc4ccc(F)cc4)cc32)[C@@H](CN2CCO[C@H](C(=O)N(C)CCCCCCN(C)C(=O)[C@@H]3CN(C[C@H]4CN[C@H](C)CN4CC(=O)N4CC(C)(C)c5[nH]c(=O)c(Cc6ccc(F)cc6)cc54)CCO3)C2)CN1	5.50 to 6.00
C[C@@H]1CN(CC(=O)N2CC(C)(C)c3[nH]c(=O)c(Cc4ccc(Cl)cc4)cc32)[C@@H](CN2CCO[C@H](C(=O)NCc3ccc(CNC(=O)[C@@H]4CN(C[C@H]5CN[C@H](C)CN5CC(=O)N5CC(C)(C)c6[nH]c(=O)c(Cc7ccc(Cl)cc7)cc65)CCO4)cc3)C2)CN1	6.00 to 7.65
C[C@@H]1CN(CC(=O)N2CC(C)(C)c3[nH]c(=O)c(Cc4ccc(F)cc4)cc32)[C@@H](CN2CCC(CN(C)C(=O)c3cccc(C(=O)N(C)CC4CCN(C[C@H]5CN[C@H](C)CN5CC(=O)N5CC(C)(C)c6[nH]c(=O)c(Cc7ccc(F)cc7)cc65)CC4)c3)CC2)CN1	5.50 to 6.00

Please look at the following compound next.
Look up pIC50 with cIAP1-BIR2 (Homo sapiens (Human), UniProt Q13490) for this compound: C[C@@H]1CN(CC(=O)N2CC(C)(C)c3[nH]c(=O)c(Cc4ccc(F)cc4)cc32)[C@@H](CN2CCO[C@H](COCCOCCOC[C@@H]3CN(C[C@H]4CN[C@H](C)CN4CC(=O)N4CC(C)(C)c5[nH]c(=O)c(Cc6ccc(F)cc6)cc54)CCO3)C2)CN1
5.00 to 5.50

* * *

study_target: XIAP-BIR3 (Homo sapiens (Human), UniProt P98170)
method_notes: BIR binding assay (FRET competition), XIAP BIR3
Experimental: The BIR domain binding assays are FRET based competition assays that utilize His-tagged versions of each of the BIR2 and BIR3 domains from cIAP1, cIAP2, and XIAP (each domain assayed separately) each at a custom optimal concentration and a probe, 200 nM SMAC/DIABLO peptide […] labelled with AlexaFluor647 (part #crb 1110326h, Discovery Peptides). The assay is conducted in 50 mM HEPES, […], 1 mM CHAPS, 5% Glycerol, 1 mM DTT, in dI water with a final pH of 7.4 and final volume of 20 uL. […]
pIC50: −log10 of the molar value.
List of pIC50 values.

Worked examples follow.
mol	pIC50
C[C@@H]1CN(CC(=O)N2CC(C)(C)c3[nH]c(=O)c(Cc4ccc(F)cc4)cc32)[C@@H](CN2CCO[C@H](C(=O)NCCCNC(=O)[C@@H]3CN(C[C@H]4CN[C@H](C)CN4CC(=O)N4CC(C)(C)c5[nH]c(=O)c(Cc6ccc(F)cc6)cc54)CCO3)C2)CN1	7.50 to 7.80
C[C@@H]1CN(CC(=O)N2CC(C)(C)c3[nH]c(=O)c(Cc4ccc(F)cc4)cc32)[C@@H](CN2CCO[C@@H](COCCCCOC[C@H]3CN(C[C@H]4CN[C@H](C)CN4CC(=O)N4CC(C)(C)c5[nH]c(=O)c(Cc6ccc(F)cc6)cc54)CCO3)C2)CN1	7.50 to 7.80

Fill blank: measured pIC50 of the compound C[C@@H]1CN(CC(=O)N2CC(C)(C)c3[nH]c(=O)c(Cc4ccc(F)cc4)cc32)[C@@H](CN2CCO[C@H](C(=O)NCCCCCNC(=O)[C@@H]3CN(C[C@H]4CN[C@H](C)CN4CC(=O)N4CC(C)(C)c5[nH]c(=O)c(Cc6ccc(F)cc6)cc54)CCO3)C2)CN1 is ____.
7.50 to 7.80

Another: C[C@@H]1CN(CC(=O)N2CC(C)(C)c3ncc(Cc4ccc(Cl)cc4)cc32)[C@@H](CN2CCO[C@H](COc3cccc(OC[C@@H]4CN(C[C@H]5CN[C@H](C)CN5CC(=O)N5CC(C)(C)c6ncc(Cc7ccc(Cl)cc7)cc65)CCO4)c3)C2)CN1
6.30 to 7.50

* * *

study_target: cIAP1-BIR3 (Homo sapiens (Human), UniProt Q13490)
Sequence (Q13490 253-363): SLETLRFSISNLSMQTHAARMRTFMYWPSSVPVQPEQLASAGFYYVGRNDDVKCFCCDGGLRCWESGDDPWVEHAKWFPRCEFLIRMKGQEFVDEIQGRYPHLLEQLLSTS
method_notes: BIR binding assay (FRET competition), cIAP1 BIR3
assay_context: fold separation (FS) for cIAP1
property_name: cIAP1 BIR3 vs BIR2 separation window

compound	study_target	reading
C[C@@H]1CN(CC(=O)N2CC(C)(C)c3[nH]c(=O)c(Cc4ccc(F)cc4)cc32)[C@@H](CN2CCO[C@H](C(=O)NCCOCCOCCOCCNC(=O)[C@@H]3CN(C[C@H]4CN[C@H](C)CN4CC(=O)N4CC(C)(C)c5[nH]c(=O)c(Cc6ccc(F)cc6)cc54)CCO3)C2)CN1 [Example 121]	cIAP1-BIR3 (Homo sapiens (Human), UniProt Q13490)	+++ (10,000>FS>1,000)
C[C@@H]1CN(CC(=O)N2CC(C)(C)c3[nH]c(=O)c(Cc4ccc(F)cc4)cc32)[C@@H](CN2CCO[C@H](COc3cccc(OC[C@@H]4CN(C[C@H]5CN[C@H](C)CN5CC(=O)N5CC(C)(C)c6[nH]c(=O)c(Cc7ccc(F)cc7)cc65)CCO4)c3Cl)C2)CN1 [Example 88]	cIAP1-BIR3 (Homo sapiens (Human), UniProt Q13490)	+++ (10,000>FS>1,000)
C[C@@H]1CN(CC(=O)N2CC(C)(C)c3[nH]c(=O)c(Cc4ccc(F)cc4)cc32)[C@@H](CN2CCC(CN(C)C(=O)Cc3cccc(C(=O)N(C)CC4CCN(C[C@H]5CN[C@H](C)CN5CC(=O)N5CC(C)(C)c6[nH]c(=O)c(Cc7ccc(F)cc7)cc65)CC4)c3)CC2)CN1 [Example 98]	cIAP1-BIR3 (Homo sapiens (Human), UniProt Q13490)	+++ (10,000>FS>1,000)
C[C@@H]1CN(CC(=O)N2CC(C)(C)c3[nH]c(=O)c(Cc4ccc(F)cc4)cc32)[C@@H](CN2CCC[C@@H](NC(=O)CCCCCCC(=O)N[C@@H]3CCCN(C[C@H]4CN[C@H](C)CN4CC(=O)N4CC(C)(C)c5[nH]c(=O)c(Cc6ccc(F)cc6)cc54)C3)C2)CN1 [Example 44]	cIAP1-BIR3 (Homo sapiens (Human), UniProt Q13490)	+++ (10,000>FS>1,000)

Look up cIAP1 BIR3 vs BIR2 separation window with cIAP1-BIR3 (Homo sapiens (Human), UniProt Q13490) for this compound: Cc1c(NC(=O)[C@@H]2CN(C[C@H]3CN[C@H](C)CN3CC(=O)N3CC(C)(C)c4[nH]c(=O)c(Cc5ccc(F)cc5)cc43)CCO2)cccc1NC(=O)[C@@H]1CN(C[C@H]2CN[C@H](C)CN2CC(=O)N2CC(C)(C)c3[nH]c(=O)c(Cc4ccc(F)cc4)cc32)CCO1 [Compound 141]
+++ (10,000>FS>1,000)

Another: C[C@@H]1CN(CC(=O)N2CC(C)(C)c3[nH]c(=O)c(Cc4ccc(F)cc4)cc32)[C@@H](CN2CCC(CNC(=O)c3ccc(C(=O)NCC4CCN(C[C@H]5CN[C@H](C)CN5CC(=O)N5CC(C)(C)c6[nH]c(=O)c(Cc7ccc(F)cc7)cc65)CC4)cc3)CC2)CN1 [Example 101]
+++ (10,000>FS>1,000)
